Reported cell viability is given for each of the following compounds.
System: NOMO1
MEASUREMENT DESCRIPTION: cell viability relative to DMSO control; higher = less cytotoxic
RECORDED CONDITIONS: RPMI 5 mM glucose + 10% dialyzed FBS; 48 h; 0.00234 µM
Quick note: give the figure in %, leave out the unit.

Examples with their reported cell viability follow.
CN1CCN(CC1)C2=CC3=C([NH]C(=N3)C/4=C(\N)C5=C(F)C=CC=C5NC4=O)C=C2 = 99.9
COc1ccc(-n2c(C)c([N+](=O)[O-])c3ccc(O)cc32)cc1 = 120
Clc1ccc(C(c2ccc(Cl)cc2)[n+]2ccn(CC(OCc3ccc(Cl)cc3Cl)c3ccc(Cl)cc3Cl)c2)cc1 (stereo unspecified) = 105
COc1cc(N2CCC(N3CCN(C)CC3)CC2)ccc1Nc1ncc(Cl)c(Nc2ccccc2[S+](=O)([O-])C(C)C)n1 = 66.3
CC1(C)[C@@H](O)CC[C@@]2(C)[C@H]1CC[C@]3(C)[C@@H]2C(=O)\C=C/4[C@@H]5C[C@](C)(CC[C@]5(C)CC[C@@]34C)C(O)=O = 108

Data request: What reported cell viability corresponds to CC1=CC/2=C(C=C1C)N(C[C@@H](O)[C@@H](O)[C@@H](O)CO)C/3=N/C(=O)NC(=O)C3=N2 on NOMO1?
Data returned: 126

Data request: What about CCCCCN(C)CCC(O)(P(=O)([O-])O)P(=O)(O)O ?
Data returned: 87.3

Data request: Do the same for C/C=C(\C)C(=O)N[C@@H](c1ccccc1)[C@@H](O)C(=O)O[C@H]1C[C@@]2(O)[C@@H](OC(=O)c3ccccc3)[C@@H]3[C@]4(OC(C)=O)CO[C@@H]4C[C@H](O)[C@@]3(C)C(=O)[C@H](OC(C)=O)C(=C1C)C2(C)C please
Data returned: 17.8

Data request: What would you report for Cc1nnc(C(=O)NC(C)(C)c2nc(C(=O)NCc3ccc(F)cc3)c(O)c(=O)n2C)o1 ?
Data returned: 100
